Data origin, for the record: patent US9458113B2

target: Human neutrophil elastase (Homo sapiens (Human)); assay: Human Neutrophil Elastase Assay; conditions: substrate MeOSuc-Ala-Ala-Pro-Val-AMC 250 μM, pH 7.5
Sequence (P08246 30-247): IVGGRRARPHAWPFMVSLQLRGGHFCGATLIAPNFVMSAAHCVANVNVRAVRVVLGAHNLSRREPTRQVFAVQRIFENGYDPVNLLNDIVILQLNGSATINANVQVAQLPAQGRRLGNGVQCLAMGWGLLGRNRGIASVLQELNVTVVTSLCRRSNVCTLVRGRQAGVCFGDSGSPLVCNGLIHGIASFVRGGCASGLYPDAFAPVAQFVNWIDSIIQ
Just a reminder that ties go to label 0: only IC50 strictly below 6 nM counts as label 1.

Challenge: Quick check: IC50 of CN1C(=O)N(c2cccc(C(F)(F)F)c2)C2=C(C(=O)CC2)C1c1ccc(C#N)cc1C1=CCOCC1 (centres unmarked) under 6 nM?
Response given: label 1

Challenge: What about this molecule? CN1C(=O)N(c2cccc(C(F)(F)F)c2)C2=C(C(=O)CC2)C1c1ccc(C#N)cc1C(=O)N1CCN(C2CC2)CC1 (centres unmarked)
Response given: label 0

Challenge: What about this molecule? CN1CCC(NC(=O)c2cc(C#N)ccc2C2C3=C(CCC3=O)N(c3cccc(C(F)(F)F)c3)C(=O)N2C)C1 (centres unmarked)
Response given: label 0

Challenge: What about this molecule? CN1C(=O)N(c2cccc(C(F)(F)F)c2)C2=C(C(=O)CC2)C1c1ccc(C#N)cc1C(=O)N1Cc2ccncc2C1 (centres unmarked)
Response given: label 1

Challenge: What about this molecule? CN1C(=O)N(c2cccc(C(F)(F)F)c2)C2=C(C(=O)CC2)C1c1ccc(C#N)cc1C(=O)N1CC[C@H](N)C1 (some centres unmarked)
Response given: label 1

Challenge: What about this molecule? CN(CCN)C(=O)c1cc(C#N)ccc1C1C2=C(CCC2=O)N(c2cccc(C(F)(F)F)c2)C(=O)N1C (centres unmarked)
Response given: label 1

Challenge: What about this molecule? CC(C)NCc1cc(C#N)ccc1C1C2=C(CCC2=O)N(c2cccc(C(F)(F)F)c2)C(=O)N1C (centres unmarked)
Response given: label 1

Challenge: What about this molecule? CN1C(=O)N(c2cccc(C(F)(F)F)c2)C2=C(C(=O)CC2)C1c1ccc(C#N)cc1C(=O)NCc1cn(C)cn1 (centres unmarked)
Response given: label 0

Challenge: What about this molecule? CCNC(=O)c1cc(C#N)ccc1C1C2=C(CCC2=O)N(c2cccc(C(F)(F)F)c2)C(=O)N1C (centres unmarked)
Response given: label 1

Challenge: What about this molecule? CN1C(=O)N(c2cccc(C(F)(F)F)c2)C2=C(C(=O)CC2)C1c1ccc(C#N)cc1C(N)=O (centres unmarked)
Response given: label 1

Challenge: What about this molecule? CN1C(=O)N(c2cccc(C(F)(F)F)c2)C2=C(C(=O)CC2)C1c1ccc(C#N)cc1C(=O)NCc1ccn(C)n1 (centres unmarked)
Response given: label 1

Challenge: What about this molecule? CN1C(=O)N(c2cccc(C(F)(F)F)c2)C2=C(C(=O)CC2)C1c1ccc(C#N)cc1C(=O)NCCS(C)(=O)=O (centres unmarked)
Response given: label 1

Challenge: What about this molecule? CN1C(=O)N(c2cccc(C(F)(F)F)c2)C2=C(C(=O)CCC2)C1c1ccc(C#N)cc1C(=O)N1CCNCC1 (centres unmarked)
Response given: label 1
